src = patent US12612380B2

Target: GBA2 (Homo sapiens, UniProt Q9HCG7)
Sequence (Q9HCG7 whole entry): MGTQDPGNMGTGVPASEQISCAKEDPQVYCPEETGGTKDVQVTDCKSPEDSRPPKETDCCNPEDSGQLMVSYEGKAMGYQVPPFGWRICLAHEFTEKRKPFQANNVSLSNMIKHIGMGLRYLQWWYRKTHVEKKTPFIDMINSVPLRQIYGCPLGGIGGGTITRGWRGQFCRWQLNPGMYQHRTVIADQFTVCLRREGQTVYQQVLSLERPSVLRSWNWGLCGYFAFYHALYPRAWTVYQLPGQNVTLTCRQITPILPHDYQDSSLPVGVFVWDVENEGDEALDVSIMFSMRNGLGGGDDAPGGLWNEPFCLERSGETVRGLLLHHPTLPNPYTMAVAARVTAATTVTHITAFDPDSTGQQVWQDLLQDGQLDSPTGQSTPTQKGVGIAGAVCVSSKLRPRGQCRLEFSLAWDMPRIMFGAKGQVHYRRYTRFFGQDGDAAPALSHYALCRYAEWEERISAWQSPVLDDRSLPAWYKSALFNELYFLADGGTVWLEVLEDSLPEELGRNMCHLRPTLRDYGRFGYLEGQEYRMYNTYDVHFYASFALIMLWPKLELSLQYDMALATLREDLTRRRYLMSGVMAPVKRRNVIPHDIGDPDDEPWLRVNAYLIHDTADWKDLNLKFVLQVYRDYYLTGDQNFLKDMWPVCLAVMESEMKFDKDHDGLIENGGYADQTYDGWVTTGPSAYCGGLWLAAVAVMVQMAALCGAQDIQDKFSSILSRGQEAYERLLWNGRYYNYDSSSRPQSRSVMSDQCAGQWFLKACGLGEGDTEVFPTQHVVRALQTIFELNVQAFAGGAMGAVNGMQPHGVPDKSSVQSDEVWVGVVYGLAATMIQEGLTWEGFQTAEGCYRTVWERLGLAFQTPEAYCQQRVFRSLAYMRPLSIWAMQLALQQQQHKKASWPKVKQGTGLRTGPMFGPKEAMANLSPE
Assay: Determination of IC50 values for inhibition of GBA2 in cell lysate
Assay type: biochemical
Set-up: host or cells: HEK293T (lentiviral transduction, puromycin selection); used as cellular homogenate
Settings: cellular homogenate of HEK293T cells overexpressing human GBA2, 250 μM 4-methylumbelliferone-β-D glucopyranoside, pH 5.5, 37° C., GCase inhibitor present; read-out: GBA2 IC50
pIC50: −log10 of the molar value.
Measured Quantity: pIC50

{"columns": ["Compound", "Measured On", "Assay Value"],
 "data": [
  ["C[C@@H]1[C@@H](O)[C@H](O)[C@@H](O)CN1CC1CCC2(CCCC2)CC1 [Example 25]", "GBA2 (Homo sapiens, UniProt Q9HCG7)", "> 7.00"],
  ["O[C@H]1[C@H](O)[C@@H](O)CN(C[C@H]2CC[C@H](C(F)(F)F)CC2)[C@@H]1CF [Example 147]", "GBA2 (Homo sapiens, UniProt Q9HCG7)", "> 7.00"],
  ["C[C@@H]1[C@@H](O)[C@H](O)[C@@H](O)CN1CC[C@H]1CC[C@H](C(F)(F)F)CC1 [Example 32]", "GBA2 (Homo sapiens, UniProt Q9HCG7)", "> 7.00"],
  ["C[C@@H]1[C@@H](O)[C@H](O)[C@@H](O)CN1CC1CCN(C(=O)C(C)(C)C)CC1 [Example 93]", "GBA2 (Homo sapiens, UniProt Q9HCG7)", "6.00 to 7.00"]
]}

----------
Molecular target: UniProt Q9HCG7
Assay: Determination of IC50 values for inhibition of GBA2 in cell lysate
Format: biochemical
Set-up: host or cells: HEK293T (lentiviral transduction, puromycin selection); used as cellular homogenate
Details: cellular homogenate of HEK293T cells overexpressing human GBA2, 250 μM 4-methylumbelliferone-β-D glucopyranoside, pH 5.5, 37° C., GCase inhibitor present; read-out: GBA2 IC50
Measured Quantity: IC50

{"columns": ["Compound", "Measured On", "Measured Quantity", "Assay Value"],
 "data": [
  ["Cc1ccncc1N1CC[C@H](CN2C[C@H](O)[C@@H](O)[C@H](O)[C@H]2C)C1", "UniProt Q9HCG7", "IC50", "100 to 1000 nM"],
  ["C[C@@H]1[C@@H](O)[C@H](O)[C@@H](O)CN1CC1Cc2ccccc2C1", "UniProt Q9HCG7", "IC50", "< 100 nM"],
  ["C[C@@H]1[C@@H](O)[C@H](O)[C@@H](O)CN1CC1CCCCC1", "UniProt Q9HCG7", "IC50", "100 to 1000 nM"],
  ["O[C@H]1[C@H](O)[C@@H](O)CN(CC2CCN(c3ccccc3)CC2)[C@@H]1CF", "UniProt Q9HCG7", "IC50", "< 100 nM"],
  ["C[C@@H]1[C@@H](O)[C@H](O)[C@@H](O)CN1CCc1c(F)cc(C2CCOCC2)cc1F", "UniProt Q9HCG7", "IC50", "< 100 nM"],
  ["C[C@@H]1[C@@H](O)[C@H](O)[C@@H](O)CN1CC1CCN(C(=O)C2CCC(C(F)(F)F)CC2)CC1 (stereo partly shown)", "UniProt Q9HCG7", "IC50", "< 100 nM"],
  ["C[C@@H]1[C@@H](O)[C@H](O)[C@@H](O)CN1CC1CCN(CC(F)(F)F)CC1", "UniProt Q9HCG7", "IC50", "100 to 1000 nM"],
  ["C[C@@H]1[C@@H](O)[C@H](O)[C@@H](O)CN1CC1CCN(c2ccccc2F)CC1", "UniProt Q9HCG7", "IC50", "< 100 nM"],
  ["C[C@@H]1[C@@H](O)[C@H](O)[C@@H](O)CN1CC1(C)CCN(c2ccccc2)CC1", "UniProt Q9HCG7", "IC50", "1000 to 25000 nM"],
  ["C[C@@H]1[C@@H](O)[C@H](O)[C@@H](O)CN1C[C@@H]1CCCN(c2cccc(C(F)(F)F)n2)C1", "UniProt Q9HCG7", "IC50", "< 100 nM"],
  ["C[C@@H]1[C@@H](O)[C@H](O)[C@@H](O)CN1C[C@H]1CCC[C@H](C(F)(F)F)C1", "UniProt Q9HCG7", "IC50", "< 100 nM"],
  ["C[C@@H]1[C@@H](O)[C@H](O)[C@@H](O)CN1C[C@@H]1CCCN(c2cnccc2C(F)(F)F)C1", "UniProt Q9HCG7", "IC50", "< 100 nM"],
  ["C[C@@H]1[C@@H](O)[C@H](O)[C@@H](O)CN1C[C@H]1CCN(c2ncccc2C(F)(F)F)C1", "UniProt Q9HCG7", "IC50", "< 100 nM"],
  ["C[C@@H]1[C@@H](O)[C@H](O)[C@@H](O)CN1C[C@@H]1CCN(c2cnccc2C(F)(F)F)C1", "UniProt Q9HCG7", "IC50", "< 100 nM"],
  ["C[C@@H]1[C@@H](O)[C@H](O)[C@@H](O)CN1C[C@@H]1CCN(c2ccccc2C(F)(F)F)C1", "UniProt Q9HCG7", "IC50", "< 100 nM"],
  ["Cc1ccccc1N1CC[C@H](CN2C[C@H](O)[C@@H](O)[C@H](O)[C@H]2C)C1", "UniProt Q9HCG7", "IC50", "< 100 nM"],
  ["C[C@@H]1[C@@H](O)[C@H](O)[C@@H](O)CN1CCc1ccccn1", "UniProt Q9HCG7", "IC50", "1000 to 25000 nM"],
  ["C[C@@H]1[C@@H](O)[C@H](O)[C@@H](O)CN1CC1CCN(C(=O)c2ccsc2)CC1", "UniProt Q9HCG7", "IC50", "100 to 1000 nM"],
  ["C[C@@H]1[C@@H](O)[C@H](O)[C@@H](O)CN1CC1CCC(c2ccccc2)CC1 (stereo partly shown)", "UniProt Q9HCG7", "IC50", "< 100 nM"],
  ["C[C@@H]1[C@@H](O)[C@H](O)[C@@H](O)CN1CCc1c(F)cc(N2CCCC2)cc1F", "UniProt Q9HCG7", "IC50", "< 100 nM"],
  ["O[C@H]1[C@H](O)[C@@H](O)CN(CCc2ccccc2)[C@@H]1C(F)F", "UniProt Q9HCG7", "IC50", "1000 to 25000 nM"],
  ["C[C@@H]1[C@@H](O)[C@H](O)[C@@H](O)CN1CC1CCN(C(=O)C2CCCC2)CC1", "UniProt Q9HCG7", "IC50", "100 to 1000 nM"],
  ["C[C@@H]1[C@@H](O)[C@H](O)[C@@H](O)CN1C[C@H]1CCN(c2ccccc2OC(F)(F)F)C1", "UniProt Q9HCG7", "IC50", "< 100 nM"],
  ["C[C@@H]1[C@@H](O)[C@H](O)[C@@H](O)CN1CCc1ccc(OC2CCOC2)cc1 (stereo partly shown)", "UniProt Q9HCG7", "IC50", "< 100 nM"],
  ["C[C@@H]1[C@@H](O)[C@H](O)[C@@H](O)CN1C[C@@H]1CCN(c2nc(C(F)(F)F)cs2)C1", "UniProt Q9HCG7", "IC50", "< 100 nM"],
  ["C[C@@H]1[C@@H](O)[C@H](O)[C@@H](O)CN1CCCC1CCCCC1", "UniProt Q9HCG7", "IC50", "< 100 nM"],
  ["C[C@@H]1[C@@H](O)[C@H](O)[C@@H](O)CN1CC1CCC(F)(F)CC1", "UniProt Q9HCG7", "IC50", "1000 to 25000 nM"],
  ["C[C@@H]1[C@@H](O)[C@H](O)[C@@H](O)CN1CCCc1ccc(F)cc1", "UniProt Q9HCG7", "IC50", "< 100 nM"],
  ["CC(C)C1CCC(CN2C[C@H](O)[C@@H](O)[C@H](O)[C@H]2CF)CC1 (stereo partly shown)", "UniProt Q9HCG7", "IC50", "< 100 nM"],
  ["C[C@@H]1[C@@H](O)[C@H](O)[C@@H](O)CN1C[C@H]1CCN(c2ccccc2F)C1", "UniProt Q9HCG7", "IC50", "< 100 nM"],
  ["C[C@@H]1[C@@H](O)[C@H](O)[C@@H](O)CN1CC1CCC(Cl)(Cl)CC1", "UniProt Q9HCG7", "IC50", "< 100 nM"]
]}
